Consider the following compounds and their measured MIC readings.
Tested on: E. coli B90
Experiment: Test A antibacterial assay, standard microtitration (MIC)
Format: cell-based
Conditions: Escherichia coli; Gram negative; E. coli B90; read-out: Minimum Inhibitory Concentrations E. coli B90
Report only the number, with the unit µg/mL understood.

Use these answered entries as a reference point.
CN[C@@H](C)[C@@H]1CCN(c2c(F)cc3c(=O)[nH]c(=O)n(C4CC4)c3c2OC)C1	2
CN[C@@H](C)[C@@H]1CCN(c2c(F)cc3c(=O)[nH]c(=O)n(C4CC4)c3c2C)C1	0.5

Moving on to another compound below.
Complete the entry with MIC for Cc1c(-c2csc(CN)c2)c(F)cc2c(=O)[nH]c(=O)n(C3CC3)c12.Cl [Example 22j]
1

====

Test system: E. coli MC 4100
Assay: Test A antibacterial assay, standard microtitration (MIC)
Assay type: cell-based
Conditions: Escherichia coli, MC4100; Gram negative; E. coli MC 4100; read-out: Minimum Inhibitory Concentrations E. coli MC 4100
outcome-measure: MIC

Provide only the value of recorded MIC for Cc1c(-c2csc(CN)c2)c(F)cc2c(=O)[nH]c(=O)n(C3CC3)c12.Cl [Example 22j]
8 µg/mL

For the molecule O=C(O)c1cn(C2CC2)c2cc(N3CCNCC3)c(F)cc2c1=O [Ciprofloxacin, ciprofloxacin, reference compound] , give its reported MIC.
< 0.02 µg/mL

State its MIC: CN[C@@H](C)[C@@H]1CCN(c2c(F)cc3c(=O)[nH]c(=O)n(C4CC4)c3c2C)C1 [Example 2]
8 µg/mL

Query MIC for CN[C@@H](C)[C@@H]1CCN(c2c(F)cc3c(=O)[nH]c(=O)n(C4CC4)c3c2OC)C1 [Example 3]
32 µg/mL

====

Target: E. coli gyrase (Escherichia coli, UniProt P0AES4+P0AES6)
Sequence (P0AES4 whole entry, one chain of several): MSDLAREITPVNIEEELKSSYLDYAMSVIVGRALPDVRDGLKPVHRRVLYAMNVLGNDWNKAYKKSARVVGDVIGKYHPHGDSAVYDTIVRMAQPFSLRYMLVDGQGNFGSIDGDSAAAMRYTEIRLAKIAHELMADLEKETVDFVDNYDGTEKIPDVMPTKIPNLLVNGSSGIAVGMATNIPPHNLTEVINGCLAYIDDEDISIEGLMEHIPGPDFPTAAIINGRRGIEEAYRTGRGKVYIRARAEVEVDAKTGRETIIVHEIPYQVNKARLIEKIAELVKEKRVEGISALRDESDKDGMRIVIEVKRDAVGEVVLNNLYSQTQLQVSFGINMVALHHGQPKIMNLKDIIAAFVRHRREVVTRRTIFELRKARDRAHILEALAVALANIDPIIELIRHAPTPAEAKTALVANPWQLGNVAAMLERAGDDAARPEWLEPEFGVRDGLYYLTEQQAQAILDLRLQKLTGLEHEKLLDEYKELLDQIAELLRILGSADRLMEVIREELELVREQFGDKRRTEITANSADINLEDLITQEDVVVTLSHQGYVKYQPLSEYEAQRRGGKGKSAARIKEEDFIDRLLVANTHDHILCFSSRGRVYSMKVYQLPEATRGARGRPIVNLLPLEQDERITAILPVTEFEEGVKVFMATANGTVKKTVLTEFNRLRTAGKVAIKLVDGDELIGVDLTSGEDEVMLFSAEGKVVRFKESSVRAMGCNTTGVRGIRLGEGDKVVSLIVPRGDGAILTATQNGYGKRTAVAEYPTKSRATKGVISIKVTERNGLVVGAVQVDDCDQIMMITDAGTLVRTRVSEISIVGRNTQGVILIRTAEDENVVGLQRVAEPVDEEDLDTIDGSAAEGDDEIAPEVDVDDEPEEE
Test: biochemical
outcome-measure: pIC50
As a rule, pIC50 stands for the negative log10 of the concentration, concentration in M.

State recorded pIC50 with E. coli gyrase (Escherichia coli, UniProt P0AES4+P0AES6), entry CC1COc2c(N3CC[C@@H]([C@H](C)N)C3)c(F)c(N)c3c(=O)[nH]c(=O)n1c23.Cl (stereo partly shown) [Example 16d, Hydrochloride] , no comment.
4.60

====

Below, each entry is listed with its recorded log10(IC50).
Biological target: E. coli gyrase (Escherichia coli, UniProt P0AES4+P0AES6)
Assay: biochemical
Conditions: supercoiling of relaxed pBR322, 30 minutes at 37° C.
Counter-ions that a name gives are not always drawn.
For clarity, the numbers are log10 values of IC50 expressed in nM.

Solved entries:
CN[C@@H](C)[C@@H]1CCN(c2c(F)cc3c(=O)[nH]c(=O)n(C4CC4)c3c2C)C1 [Example 2]	3.32
Cc1c(N2CC[C@@H]([C@H](C)N)C2)c(F)cc2c(=O)[nH]c(=O)n(C3CC3)c12 [Example 4b, Hydrochloride]	2.78
Cc1c(N2CCC(C(N)CF)C2)c(F)cc2c(=O)[nH]c(=O)n(C3CC3)c12.Cl (centres unmarked) [Example 19f, Hydrochloride]	3.26

Dear colleague, please send me the reported log10(IC50) for CN[C@@H](C)[C@@H]1CCN(c2c(F)cc3c(=O)[nH]c(=O)n(C4CC4)c3c2OC)C1 [Example 3] when you can.
3.85

Report measured log10(IC50); entry is Cc1c(-c2csc(CN)c2)c(F)cc2c(=O)[nH]c(=O)n(C3CC3)c12.Cl [Example 22j, Hydrochloride]
3.15
